B1: Twister Ribozyme (parent)
chain: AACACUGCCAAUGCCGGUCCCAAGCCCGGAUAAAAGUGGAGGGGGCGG

# Variants of: B1
# assayComment: self-cleavage, relative activity (ratio to wild type); higher = more cleavage; co-transcriptional
measuredProperty: self-cleavage

| change | self-cleavage |
| --- | --- |
| A34G U37C | 0.0836 |
| A4C C27G | 0.0637 |
| C9A C20A | 0.0653 |
| C25G G47A | 0.153 |
| A10G G48C | 1.2 |
| U12G C19U | 0.998 |
| C25G A34C | 0.115 |
| C3G G29A | 0.348 |

Item under review: G28U A32U . Reported self-cleavage?
0.873

Item under review: C8U A33C . Reported self-cleavage?
0.447

Item under review: C26U G28C . Reported self-cleavage?
0.134
